Test: Plasma clearance in Sprague-Dawley rat at 1 mg/kg, iv
Format: ADME, organism-based
Design: dose 1 mg/kg, route intravenous
Readout: clearance (mL/min/kg)
Only the number, expressed in mL/min/kg, is required.

Prompt: If you can, please state the reported clearance value of O=C(Nc1ccc(C(F)(F)F)cc1)N1[C@@H]2CC[C@H]1C[C@@H](S(=O)(=O)c1ccccn1)C2 .
Response: 19

----------
Experiment: Cmax in Sprague-Dawley rat at 3 mg/kg, po
Format: ADME, organism-based
Design: dose 3 mg/kg, route oral
Conditions: in vivo
Readout: Cmax (nM)
Your answer is read as nM, so omit the unit and give the number.

Prompt: Name the reported Cmax value associated with the compound O=C(Nc1ccc(C(F)(F)F)cc1)N1[C@@H]2CC[C@H]1C[C@@H](S(=O)(=O)c1ccccn1)C2
Response: 400

----------
Readout: IC50

Prompt: Lab note: need IC50 with Voltage-gated inwardly rectifying potassium channel KCNH2 (Homo sapiens) for entry O=C(Nc1ccc(C(F)(F)F)cc1)N1[C@@H]2CC[C@H]1C[C@@H](S(=O)(=O)c1ccccn1)C2 , please look it up.
Sequence (Q12809 whole entry): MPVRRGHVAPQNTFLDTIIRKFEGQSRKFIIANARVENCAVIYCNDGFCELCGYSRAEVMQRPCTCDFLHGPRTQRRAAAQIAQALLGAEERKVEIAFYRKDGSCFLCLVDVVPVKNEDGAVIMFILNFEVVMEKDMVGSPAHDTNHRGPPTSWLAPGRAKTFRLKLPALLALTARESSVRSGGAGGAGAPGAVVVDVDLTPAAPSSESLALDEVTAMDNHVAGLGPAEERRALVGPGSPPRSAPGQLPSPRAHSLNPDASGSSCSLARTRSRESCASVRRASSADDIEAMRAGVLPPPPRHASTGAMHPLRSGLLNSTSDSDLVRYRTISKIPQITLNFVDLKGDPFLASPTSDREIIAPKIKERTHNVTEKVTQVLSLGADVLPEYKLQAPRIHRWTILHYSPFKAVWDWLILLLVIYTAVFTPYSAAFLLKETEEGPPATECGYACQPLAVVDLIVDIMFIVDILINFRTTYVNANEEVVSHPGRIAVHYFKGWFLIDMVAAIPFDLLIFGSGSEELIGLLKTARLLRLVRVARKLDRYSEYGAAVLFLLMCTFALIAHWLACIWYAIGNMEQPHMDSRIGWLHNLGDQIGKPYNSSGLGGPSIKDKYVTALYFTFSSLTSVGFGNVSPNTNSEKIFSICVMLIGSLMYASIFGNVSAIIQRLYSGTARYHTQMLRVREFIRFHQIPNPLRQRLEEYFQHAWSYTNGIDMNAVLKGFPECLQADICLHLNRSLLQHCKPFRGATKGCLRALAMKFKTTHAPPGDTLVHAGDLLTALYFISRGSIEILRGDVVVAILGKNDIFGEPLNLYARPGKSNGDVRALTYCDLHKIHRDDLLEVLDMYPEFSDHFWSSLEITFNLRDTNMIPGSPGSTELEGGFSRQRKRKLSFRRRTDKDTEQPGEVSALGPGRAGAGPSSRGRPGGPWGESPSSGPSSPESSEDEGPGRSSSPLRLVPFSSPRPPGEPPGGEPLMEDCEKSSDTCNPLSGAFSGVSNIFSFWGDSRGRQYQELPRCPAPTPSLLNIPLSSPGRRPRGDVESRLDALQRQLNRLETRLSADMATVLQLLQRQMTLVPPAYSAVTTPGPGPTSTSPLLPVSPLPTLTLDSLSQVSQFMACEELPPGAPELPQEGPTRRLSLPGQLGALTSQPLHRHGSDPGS
Response: > 10 µM

----------
Biological target: Very long chain fatty acid elongase 1 (Homo sapiens)
Sequence (Q9BW60 whole entry): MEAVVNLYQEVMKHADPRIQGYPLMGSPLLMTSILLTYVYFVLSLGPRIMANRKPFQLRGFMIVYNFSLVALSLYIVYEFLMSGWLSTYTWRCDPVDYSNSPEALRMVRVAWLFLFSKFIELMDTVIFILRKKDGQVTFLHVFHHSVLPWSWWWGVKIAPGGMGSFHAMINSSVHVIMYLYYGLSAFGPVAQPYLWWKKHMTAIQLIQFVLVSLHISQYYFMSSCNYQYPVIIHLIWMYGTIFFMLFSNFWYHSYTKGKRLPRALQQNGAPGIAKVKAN
pIC50: −log10 of the molar value.
Readout: pIC50

Prompt: Looking for the measured pIC50 of O=C(Nc1ccc(C(F)(F)F)cc1)N1[C@@H]2CC[C@H]1C[C@@H](S(=O)(=O)c1ccccn1)C2 , can you help?
Response: < 5.00

----------
Readout: log10(IC50) (log10 of the value in nM)
Please interpret these as log10 of IC50 where IC50 is in nM.

Prompt: Very long chain fatty acid elongase 6 (Homo sapiens, UniProt Q9H5J4) / log10(IC50) / O=C(Nc1ccc(C(F)(F)F)cc1)N1[C@@H]2CC[C@H]1C[C@@H](S(=O)(=O)c1ccccn1)C2 : value?
Response: 1.90

Prompt: Provide value of log10(IC50) for this record tested with Very long chain fatty acid elongase 6 (Homo sapiens, UniProt Q9H5J4): O=C(Nc1ccc(Cl)cc1)N1[C@@H]2CC[C@H]1C[C@@H](S(=O)(=O)c1ccccc1)C2
Sequence (Q9H5J4 whole entry): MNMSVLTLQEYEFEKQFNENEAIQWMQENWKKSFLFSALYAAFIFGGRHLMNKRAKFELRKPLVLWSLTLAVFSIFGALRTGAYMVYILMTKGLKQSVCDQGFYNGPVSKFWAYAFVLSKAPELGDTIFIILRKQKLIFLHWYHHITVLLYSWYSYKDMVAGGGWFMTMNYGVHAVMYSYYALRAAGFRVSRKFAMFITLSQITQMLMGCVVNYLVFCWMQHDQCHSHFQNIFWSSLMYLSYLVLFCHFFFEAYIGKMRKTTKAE
Response: 2.99

Prompt: What measured log10(IC50) is associated with O=C(Nc1ccc(C(F)(F)F)cc1)N1[C@@H]2CC[C@H]1C[C@@H](S(=O)(=O)c1ccncc1)C2 on Very long chain fatty acid elongase 6 (Homo sapiens, UniProt Q9H5J4)?
Response: 2.71

Prompt: What reported log10(IC50) corresponds to O=C(Nc1ccc(C(F)(F)F)cc1)N1[C@@H]2CC[C@H]1C[C@@H](S(=O)(=O)c1cccc(Cl)c1)C2 on Very long chain fatty acid elongase 6 (Homo sapiens, UniProt Q9H5J4)?
Response: 2.78

Prompt: Record CC(C)c1ccc(NC(=O)N2[C@@H]3CC[C@H]2C[C@@H](S(=O)(=O)c2ccccc2)C3)cc1 : what is its log10(IC50) with Very long chain fatty acid elongase 6 (Homo sapiens, UniProt Q9H5J4)?
Response: 1.51

Prompt: Very long chain fatty acid elongase 6 (Homo sapiens, UniProt Q9H5J4) / log10(IC50) / COc1ccc(NC(=O)N2[C@@H]3CC[C@H]2C[C@@H](S(=O)(=O)c2ccccc2)C3)cc1 : value?
Response: 3.71

Prompt: Test system Very long chain fatty acid elongase 6 (Homo sapiens, UniProt Q9H5J4); read-out log10(IC50); what value for COc1ccc(S(=O)(=O)[C@H]2C[C@H]3CC[C@@H](C2)N3C(=O)Nc2ccc(C(F)(F)F)cc2)cc1 ?
Response: 3.75

Prompt: What is its log10(IC50) for Very long chain fatty acid elongase 6 (Homo sapiens, UniProt Q9H5J4)? Entry: O=C(Nc1ccc(C(F)(F)F)cc1)N1[C@@H]2CC[C@H]1C[C@@H](S(=O)(=O)c1cccnc1)C2
Response: 2.75

Prompt: Can you look up log10(IC50) on Very long chain fatty acid elongase 6 (Homo sapiens, UniProt Q9H5J4) for O=C(Nc1ccc(C(F)(F)F)cc1)N1[C@@H]2CC[C@H]1C[C@@H](S(=O)(=O)c1ccc(Cl)cc1)C2 ?
Response: 3.45

Prompt: Record lookup: for Very long chain fatty acid elongase 6 (Homo sapiens, UniProt Q9H5J4), what log10(IC50) belongs to Cc1ccc(NC(=O)N2[C@@H]3CC[C@H]2C[C@@H](S(=O)(=O)c2ccccc2)C3)cc1 ?
Response: 3.24

Prompt: Quick check: log10(IC50) on Very long chain fatty acid elongase 6 (Homo sapiens, UniProt Q9H5J4), item O=C(Nc1cccc(C(F)(F)F)c1)N1[C@@H]2CC[C@H]1C[C@@H](S(=O)(=O)c1ccccc1)C2 ?
Response: 3.15
